// provenance: patent US9546164B2

target.under.test: hNav1.7 (Homo sapiens (Human), UniProt Q15858)
Sequence (Q15858 other isoform, or with tags, fused parts or gaps): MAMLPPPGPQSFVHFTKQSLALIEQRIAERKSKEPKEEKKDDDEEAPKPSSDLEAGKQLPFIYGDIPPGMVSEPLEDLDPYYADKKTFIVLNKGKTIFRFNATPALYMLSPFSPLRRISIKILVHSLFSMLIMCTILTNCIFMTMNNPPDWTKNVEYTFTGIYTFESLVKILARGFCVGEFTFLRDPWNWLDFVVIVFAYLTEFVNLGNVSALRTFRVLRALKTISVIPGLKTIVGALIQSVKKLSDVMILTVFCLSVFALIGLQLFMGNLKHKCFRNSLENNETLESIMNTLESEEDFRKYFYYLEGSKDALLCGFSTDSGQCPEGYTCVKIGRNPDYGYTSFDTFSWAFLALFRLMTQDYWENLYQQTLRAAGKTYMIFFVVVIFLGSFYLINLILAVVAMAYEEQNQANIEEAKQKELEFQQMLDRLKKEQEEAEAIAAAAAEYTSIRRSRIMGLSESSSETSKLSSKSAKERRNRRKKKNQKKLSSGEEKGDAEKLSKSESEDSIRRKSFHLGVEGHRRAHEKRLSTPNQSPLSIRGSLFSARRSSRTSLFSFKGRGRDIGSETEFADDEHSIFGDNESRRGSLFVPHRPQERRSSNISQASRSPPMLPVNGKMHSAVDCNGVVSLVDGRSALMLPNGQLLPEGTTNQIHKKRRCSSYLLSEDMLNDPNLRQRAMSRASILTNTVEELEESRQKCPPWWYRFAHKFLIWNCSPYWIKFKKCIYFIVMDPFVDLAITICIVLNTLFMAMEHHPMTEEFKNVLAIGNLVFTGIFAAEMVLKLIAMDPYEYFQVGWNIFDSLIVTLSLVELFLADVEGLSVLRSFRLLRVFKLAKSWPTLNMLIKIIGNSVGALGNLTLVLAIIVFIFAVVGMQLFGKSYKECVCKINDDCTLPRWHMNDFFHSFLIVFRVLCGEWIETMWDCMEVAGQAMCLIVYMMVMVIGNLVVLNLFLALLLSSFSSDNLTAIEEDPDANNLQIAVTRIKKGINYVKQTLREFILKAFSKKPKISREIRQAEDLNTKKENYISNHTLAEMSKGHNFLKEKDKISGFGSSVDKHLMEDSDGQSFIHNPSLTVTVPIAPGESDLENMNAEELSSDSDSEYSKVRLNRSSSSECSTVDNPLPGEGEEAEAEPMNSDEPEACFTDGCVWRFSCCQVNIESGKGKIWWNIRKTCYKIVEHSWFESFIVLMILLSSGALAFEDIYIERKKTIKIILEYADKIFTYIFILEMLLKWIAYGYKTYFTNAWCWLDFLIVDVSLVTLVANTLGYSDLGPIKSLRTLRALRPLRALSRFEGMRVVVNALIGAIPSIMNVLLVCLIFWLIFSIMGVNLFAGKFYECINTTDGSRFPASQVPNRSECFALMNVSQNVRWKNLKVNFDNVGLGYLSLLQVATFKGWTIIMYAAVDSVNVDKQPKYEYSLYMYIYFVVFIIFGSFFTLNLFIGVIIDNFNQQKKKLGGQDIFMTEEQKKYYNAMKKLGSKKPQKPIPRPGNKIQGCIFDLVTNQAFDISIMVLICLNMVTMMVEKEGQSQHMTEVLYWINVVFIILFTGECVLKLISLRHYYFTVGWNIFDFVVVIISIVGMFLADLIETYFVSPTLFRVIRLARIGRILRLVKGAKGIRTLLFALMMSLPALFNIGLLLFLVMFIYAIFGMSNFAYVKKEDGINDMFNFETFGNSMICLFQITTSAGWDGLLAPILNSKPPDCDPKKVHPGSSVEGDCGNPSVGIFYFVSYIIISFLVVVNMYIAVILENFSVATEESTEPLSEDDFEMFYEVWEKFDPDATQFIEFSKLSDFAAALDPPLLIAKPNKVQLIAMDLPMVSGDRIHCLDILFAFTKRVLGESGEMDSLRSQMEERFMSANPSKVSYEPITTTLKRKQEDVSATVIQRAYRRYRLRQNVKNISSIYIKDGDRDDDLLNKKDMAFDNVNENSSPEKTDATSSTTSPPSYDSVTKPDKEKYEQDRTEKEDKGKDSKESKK
Sequence (Q07699 19-218 partner): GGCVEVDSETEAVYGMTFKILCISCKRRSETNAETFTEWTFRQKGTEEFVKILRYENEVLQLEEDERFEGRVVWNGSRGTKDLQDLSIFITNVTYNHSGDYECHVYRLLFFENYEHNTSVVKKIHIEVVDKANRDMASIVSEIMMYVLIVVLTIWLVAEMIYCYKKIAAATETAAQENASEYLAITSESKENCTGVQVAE
measurement.notes: Tritiated sulfonamide competitive binding to membranes from cells expressing hNav1.7 and the β1 subunit
pIC50: −log10 of the molar value. Counter-ions that a name gives are not always drawn.
quantity: pIC50

The following compounds have reported results that may help.
Recorded pIC50 for CC(C)(C)N1CCC[C@@H](Oc2cc(F)c(C(=O)NS(=O)(=O)C3CC3)cc2C2CC2)C1 [Example 539] , please?
5.64

// query: CS(=O)(=O)NC(=O)c1cc(C2CC2)c(CN2CCC(Oc3cccc(C(F)(F)F)c3)CC2)cc1F [Example 501, trifluoroacetic acid salt]
7.87

// query: CC(=O)N1CCC[C@@H](Oc2cc(F)c(C(=O)NS(=O)(=O)C3CC3)cc2C2CC2)C1 [Example 4]
5.18

A. O=C(NS(=O)(=O)C1CC1)c1cc(C2CC2)c(CN2CCC(Oc3ccc(Cl)c(C(F)(F)F)c3)CC2)cc1F [Example 520, trifluoroacetic acid salt]
B. O=C(NS(=O)(=O)C1CC1)c1cc(C2CC2)c(O[C@@H]2CCCN(Cc3ccccc3Cl)C2)cc1F [Example 23]
C. O=C(NS(=O)(=O)C1CC1)c1cc(C2CC2)c(CN2CCC(Oc3ncc(C(F)(F)F)cc3Cl)CC2)cc1F [Example 524, trifluoroacetic acid salt]
D. C[C@H](c1cc(Cl)cc(Cl)c1)N1C[C@@H]2C[C@H]1CN2Cc1cc(F)c(C(=O)NS(=O)(=O)C2CC2)cc1C1CC1 (single isomer, unassigned) [Example 563, trifluoroacetic acid salt]
Arrange these 4 compounds in increasing order of pIC50. As an answer, provide the labels arranged in the order called for.
C, A, D, B
(C: 7.94, A: 8.14, D: 8.38, B: 8.77)

a. CC(c1cc(Cl)cc(Cl)c1)N1CCN(Cc2cc(F)c(C(=O)NS(=O)(=O)C3CC3)cc2C2CC2)CC1 (centres unmarked) [Example 541]
b. O=C(NS(=O)(=O)C1CC1)c1cc(C2CC2)c(O[C@@H]2CCCN(c3cc(Cl)cc(Cl)c3)C2)cc1F [Example 42]
c. C[C@@H]1CN(Cc2cc(F)c(C(=O)NS(=O)(=O)C3CC3)cc2C2CC2)CCN1[C@@H](C)c1cc(Cl)cc(Cl)c1 [Example 572]
hey, can you rank those compounds up there by pIC50? biggest number first please As an answer, provide the labels arranged in the order called for.
b, a, c

P. O=C(NS(=O)(=O)C1CC1)c1cc(C2CC2)c(CN2CCC(Sc3cc(Cl)cc(Cl)c3)CC2)cc1F [Example 531, trifluoroacetic acid salt]
Q. O=C(NS(=O)(=O)C1CC1)c1cc(C2CC2)c(CN2CCC(Oc3cc(C(F)(F)F)c(Cl)cn3)CC2)cc1F [Example 522, trifluoroacetic acid salt]
API: POST /compare with P and Q ; response names the item with higher pIC50. Write down the label attached to your selection.
P
(P: 8.66, Q: 8.28)

1. C[C@H]1CN(Cc2cc(F)c(C(=O)NS(C)(=O)=O)cc2C2CC2)CCN1[C@@H](C)c1cc(Cl)cc(Cl)c1 [Example 567]
2. C[C@H](c1cc(Cl)cc(Cl)c1)N1CCN(Cc2cc(F)c(C(=O)NS(=O)(=O)C3CC3)cc2C2CC2)C[C@@H]1C [Example 566]
API: POST /compare with 1 and 2 ; response names the item with higher pIC50. Write down the label attached to your selection.
2

I. CC1(C)CN(Cc2cc(F)c(C(=O)NS(=O)(=O)C3CC3)cc2C2CC2)CCC1Oc1cc(C(F)(F)F)c(Cl)cn1 (centres unmarked) [Example 562, trifluoroacetic acid salt]
II. Cn1nc(-c2ccccc2)cc1CN1CCC[C@@H](Oc2cc(F)c(C(=O)NS(C)(=O)=O)cc2C2CC2)C1 [Example 12]
III. CS(=O)(=O)NC(=O)c1cc(C2CC2)c(CN2CCC(S(=O)(=O)c3cc(Cl)cc(Cl)c3)CC2)cc1F [Example 532, trifluoroacetic acid salt]
IV. CS(=O)(=O)NC(=O)c1cc(C2CC2)c(O[C@@H]2CCCN(Cc3ccc(Cl)cc3Cl)C2)cc1F [Example 29]
Arrange these 4 compounds in increasing order of pIC50. As an answer, provide the labels arranged in the order called for.
III, II, I, IV

I. O=C(NS(=O)(=O)C1CC1)c1cc(C2CC2)c(O[C@@H]2CCCN(c3ccc(F)cc3)C2)cc1F [Example 38]
II. CS(=O)(=O)NC(=O)c1cc(C2CC2)c(CN2CC(Oc3cc(Cl)cc(Cl)c3)C2)cc1F [Example 544, trifluoroacetic acid salt]
III. CS(=O)(=O)NC(=O)c1cc(C2CC2)c(OCC2CCN(Cc3ccc(F)c(C#N)c3)CC2)cc1F [Example 591]
hey, can you rank those compounds up there by pIC50? biggest number first please As an answer, provide the labels arranged in the order called for.
I, II, III

====

target.under.test: hNav1.7 (Homo sapiens (Human), UniProt Q15858)
measurement.notes: Tritiated sulfonamide competitive binding to membranes from cells expressing hNav1.7 and the β1 subunit;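 further: Filter-bound radioactivity counted by liquid scintillation, nonspecific binding defined with excess unlabelled ligand, IC50 fitted to percent inhibition of specific binding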
run.parameters: read-out: Ligand Binding Assay; 100 pM [3H]compound, membranes with hNav1.7 and β1 subunit, 18 h, room temperature
pIC50: −log10 of the molar value.
quantity: pIC50

Recorded pIC50 for C[C@H](c1cccc(F)c1)N1CCC(C)(COc2cc(F)c(C(=O)NS(C)(=O)=O)cc2C2CC2)CC1 (single isomer, unassigned) , please?
7.37

// query: `CS(=O)(=O)NC(=O)c1cc(C2CC2)c(OCC2CCN(c3ccccc3)CC2)cc1F`
8.00

P. C[C@H](c1ccc(F)cc1)N1CCC[C@@H](Oc2cc(F)c(C(=O)NS(=O)(=O)C3CC3)cc2C2CC2)C1
Q. CS(=O)(=O)NC(=O)c1cc(C2CC2)c(OCC2CCN(Cc3ccc(F)cc3)CC2)cc1F
API: POST /compare with P and Q ; response names the item with higher pIC50. Write down the label attached to your selection.
P

====

target.under.test: UniProt Q15858
measurement.notes: Tritiated sulfonamide competitive binding to membranes from cells expressing hNav1.7 and the β1 subunit
run.parameters: read-out: Ligand Binding Assay; 100 pM [3H]compound, membranes with hNav1.7 and β1 subunit, 18 h, room temperature
Structures can show the parent of a compound that is named as a salt.
quantity: IC50 (nM)

Recorded IC50 for CCS(=O)(=O)NC(=O)c1cc(C2CC2)c(OCC2(C)CN([C@@H](C)c3cc(Cl)cc(Cl)c3)C2)cc1F (single isomer, unassigned) , please?
3.5

a. O=C(NS(=O)(=O)C1CC1)c1cc(C2CC2)c(OCC2CCN(S(=O)(=O)c3cccc(C(F)(F)F)c3)CC2)cc1F
b. O=C(NS(=O)(=O)N1CCC1)c1cc(C2CC2)c(OCC2CCN(C3(c4cc(Cl)cc(Cl)c4)COC3)CC2)cc1F
c. CC1(Oc2cc(C(F)(F)F)c(Cl)cn2)CCN(Cc2cc(F)c(C(=O)NS(=O)(=O)C3CC3)cc2C2CC2)CC1 [Example 472, trifluoroacetic acid salt]
d. CS(=O)(=O)NC(=O)c1cc(C2CC2)c(OCC2CN(Cc3ccccc3)C2)cc1F
Arrange these 4 compounds in increasing order of IC50. As an answer, provide the labels arranged in the order called for.
c, b, a, d

====

target.under.test: UniProt:Q15858
measurement.notes: Tritiated sulfonamide competitive binding to membranes from cells expressing hNav1.7 and the β1 subunit
pIC50: −log10 of the molar value. Where a name gives a salt, the structure may show the parent alone.
quantity: pIC50

The following compounds have reported results that may help.
Record `O=C(NS(=O)(=O)C1CC1)c1cc(Cl)c(O[C@@H]2CCCN(Cc3ccc(F)cc3Cl)C2)cc1F.O=C(O)C(Cl)(Cl)Cl` : what is its pIC50 with UniProt:Q15858?
8.17

// query: `O=C(NS(=O)(=O)C1CC1)c1cc(C2CC2)c(O[C@@H]2CCCN(C(c3ccccc3)c3ccccc3)C2)cc1F`
8.47

// query: CS(=O)(=O)NC(=O)c1cc(C2CC2)c(CN2CCC(CF)(c3ccc(F)cc3)CC2)cc1F [Example 513, trifluoroacetic acid salt]
7.16

// query: `O=C(NS(=O)(=O)C1CC1)c1cc(C2CC2)c(O[C@@H]2CCCN(Cc3ccc(F)cc3C(F)(F)F)C2)cc1F`
8.62

a. CS(=O)(=O)NC(=O)c1cc(C2CC2)c(CN2CCC(Oc3ccc(C(F)(F)F)cc3)CC2)cc1F
b. C[C@@H](c1cc(Cl)cc(Cl)c1)N1C[C@@H]2C[C@H]1CN2Cc1cc(F)c(C(=O)NS(=O)(=O)C2CC2)cc1C1CC1 [Example 564, trifluoroacetic acid salt]
API: POST /compare with a and b ; response names the item with higher pIC50. Write down the label attached to your selection.
b

I. C[C@@H]1CN(Cc2cc(F)c(C(=O)NS(=O)(=O)C3CC3)cc2C2CC2)CCN1[C@H](C)c1cc(Cl)cc(Cl)c1
II. CS(=O)(=O)NC(=O)c1cc(C2CC2)c(O[C@@H]2CCCN(Cc3cccc4c3CNC4)C2)cc1F
III. CS(=O)(=O)NC(=O)c1cc(C2CC2)c(OCC2CN([C@@H](c3ccccc3)c3ccc(C#N)cc3)C2)cc1F
IV. O=C(NS(=O)(=O)N1CCC1)c1cc(C2CC2)c(O[C@@H]2CCCN(Cc3ccc(F)cc3F)C2)cc1F
hey, can you rank those compounds up there by pIC50? biggest number first please As an answer, provide the labels arranged in the order called for.
I, IV, III, II

I. CC(C)(c1cccc(Cl)c1)N1CCC[C@@H](Oc2cc(F)c(C(=O)NS(=O)(=O)C3CC3)cc2C2CC2)C1 [Example 530, trifluoroacetic acid salt]
II. O=C(NS(=O)(=O)C1CC1)c1cc(C2CC2)c(CN2CCC([S+]([O-])c3cc(Cl)cc(Cl)c3)CC2)cc1F (stereo not shown) [Example 535, trifluoroacetic acid salt]
Of I versus II , which is the one with smaller reported pIC50? Write down the label attached to your selection.
II
(II: 6.14, I: 8.64)
